These entries and their values trace back to paper PMC3961306.

Tested on: forty-four human cancer cell lines
Experiment: Cell proliferation assay (ATPlite, 72 hours) in the 44 cell line Oncolines panel
Format: cell-based
Conditions: Homo sapiens, SW48, read-out: cell panel IC50, SW48
readout.kind: IC50

[
  {
    "structure.notation": "COc1cc(Nc2c(C#N)cnc3cc(OCCCN4CCN(C)CC4)c(OC)cc23)c(Cl)cc1Cl",
    "subject.of.test": "forty-four human cancer cell lines",
    "result": "11.7 µM"
  }
]

get_value(item= O=S(=O)(c1cccc2cnccc12)N1CCCNCC1 , readout=IC50) returns > 31.6 µM

get_value(item= COc1cc2c(Nc3ccc(Br)cc3F)ncnc2cc1OCC1CCN(C)CC1 , readout=IC50) returns > 31.6 µM
